- System: TDP-43 (Homo sapiens, UniProt Q13148 1-414)
- Sequence (Q13148 whole entry): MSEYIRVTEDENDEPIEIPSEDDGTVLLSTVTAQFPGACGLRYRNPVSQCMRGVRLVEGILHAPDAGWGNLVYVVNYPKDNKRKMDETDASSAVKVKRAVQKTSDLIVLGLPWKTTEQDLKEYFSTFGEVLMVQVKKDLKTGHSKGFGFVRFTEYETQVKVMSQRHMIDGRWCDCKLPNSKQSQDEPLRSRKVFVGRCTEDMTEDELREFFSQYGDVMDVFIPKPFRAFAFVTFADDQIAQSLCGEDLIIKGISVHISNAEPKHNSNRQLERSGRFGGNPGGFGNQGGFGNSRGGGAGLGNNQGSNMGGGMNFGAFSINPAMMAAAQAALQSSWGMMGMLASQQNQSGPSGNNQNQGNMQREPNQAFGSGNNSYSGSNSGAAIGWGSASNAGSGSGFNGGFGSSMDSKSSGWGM
- Protocol notes: RNA Bind-n-Seq with designed 260-mer pool; 25 mM Tris-HCl, 150 mM KCl, 3 mM MgCl2, BSA (printed 500 mg/mL), 20 units/mL SUPERase IN; pH not stated; 500 nM RNA pool, 1 h, 4 C; TDP-43 5, 50, 500 nM; high values mean tight binding
- Measurement setup: protein: recombinant; tags: SBP (GST cleaved off with PreScission; pGEX-GST-SBP)
Whole data set: some 9,900 sequences, median “r (bound/input frequency ratio)” near 0.7, cut for the highest 2% near 6.5. The list comes from a sample in which the highest values are over-represented; it also holds close analogues and randomly drawn sequences.
Catalogue of binding signal readings, one per entry.

binder="ENSMUSG00000042529.435|Kcnj12|146:150 (ssRNA) RNA: GGGAGUUCUACAGUCCGACGAUCGCUUCGAUAUCCGCAUGCUAAGAGAGAGAGAGAGAGAGAGAGAGAGAGAGAGAGAGAGAGCUGCACAGGAUGAAGCAGCUGCCCUGAGCCCAUCUGGUGCUGUGCACCUGGUCCUUGUCCAGCCGAGGGCCUGGGGGCAGAAGAACACACCAUAGGGAGGCCCUUCAUACGGUGUCUGCCCUAUGUGAGGUCAUAGAAUGUUAAAUCUAUUUUAAACGGUGAAACUGGAGAAUUUUCAUGUUAUUUUCAAUAAUAGUGGUAUCUAAAGAUGUAGGCAACACUCUUGCGGUCGCACUAGUGUGGAAUUCUCGGGUGUCAAGG" measured_property="binding signal" result="4.76 R (bound/input frequency ratio)"
binder="ENSMUSG00000061578.55|Ksr2 (ssRNA) RNA: GGGAGUUCUACAGUCCGACGAUCGCUUCGAUAUCCGCAUGCUACACGCUGGACCAGUGUGUGCGCAUGUGUCUACACAUGGACAGGGCCAACUGCUAUCCUUCUGCCUGGACGAGCCAGCUGUGGAGUGUCCCAGCUGUGCUAUCCUGGAACACAGAACCAGGAUGGAACCAGAAACAAUACACCUGCUCCGUUGUCAAGGCUUCUAGGCCAAGGUCAGGGUAGGGAGGUGGGGUGGGUUAAACUUGCAAACAUCUGAUUUUAGAGGUCCCAUUCCAAGAUGGAAGUCACCGGUUGCCGCUGACUCUUGCGGUCGCACUAGUGUGGAAUUCUCGGGUGUCAAGG" measured_property="binding signal" result="0.378 R (bound/input frequency ratio)"
binder="ENSMUSG00000032194.138|Kank2 (ssRNA) RNA: GGGAGUUCUACAGUCCGACGAUCGCUUCGAUAUCCGCAUGCUAUGACUUGGAAAUGACCAACUUACAAGAAGUUAUGCUGACCUCCCUGUUCCCCACGGGGAGUGCUUGGCAGAGGAGACUACUUCUAGAAAUACUUUCAGACCUACAGACAAAAAAGAAAAAAGGCCAUUCCGGAGUGACUCCCAGCAUCACAGCCCAGAACCUCCUCCUCAAAGGAGAGUAAACAGAGACUGUGAUACUGACCAAGUACAGGCGCUCGCUAUGAAGCCCAUAUGUUCCUGAUUAAGAGCUGGCUGGCCUCACUCUUGCGGUCGCACUAGUGUGGAAUUCUCGGGUGUCAAGG" measured_property="binding signal" result="0.253 R (bound/input frequency ratio)"
binder="ENSMUSG00000029028.242|Lrrc47 (ssRNA) RNA: GGGAGUUCUACAGUCCGACGAUCGCUUCGAUAUCCGCAUGCUAGUCAGAACUAGUGAAGCUCCAGGCUCCUCGUGGCAGACCCUGGACAACGCUGGUAGCUGUUCUCCAUGAGACACGGCUGCUCACAGGUCCCUUUGAGUGGCUGUGGCAAGUACUCACCUACUAAGUGUUUAGGGUGGAGCUAUCCUGUGCUCACCCUGUCUCCCCCCAGUUCCUGCUGUUCCCUCCAGCCCAGCCCAGCCCAGGUGUGAGAUUCAUUGAGAUUUUUGAAACUGUUUUUACAGAUUCAAGCAGAACGCCUCCUCUUGCGGUCGCACUAGUGUGGAAUUCUCGGGUGUCAAGG" measured_property="binding signal" result="0.479 R (bound/input frequency ratio)"
binder="ENSMUSG00000061578.738|Ksr2 (ssRNA) RNA: GGGAGUUCUACAGUCCGACGAUCGCUUCGAUAUCCGCAUGCUAUUGUCUAAGGCUGUGGGUUUUAAAUACCUGCUGCAGGCCUCCCAUCUCUGGCUCUUUGUUUCCACUCUGGCCCAAGUUUGAGUCUCCAUAUGGGCCCUUCCUGUCCUCAUGCCCUGCCUGUCUUCAUUCCACCCAUCCACCCUCCUAAGGAUUGGUCUUGUUCCGAGAGUGAUCCUGGUAACGCCAAGCCUCCCUCUGCCCCUGUGUUGGCUUCUGUGACGGACUACCACACACCAAGAGGUUUUUCACAGUGAAGAUGUCUCUUGCGGUCGCACUAGUGUGGAAUUCUCGGGUGUCAAGG" measured_property="binding signal" result="1.57 R (bound/input frequency ratio)"

Need binding signal, item ENSMUSG00000022095.153|Fam160b2|110:114 (ssRNA) RNA: GGGAGUUCUACAGUCCGACGAUCGCUUCGAUAUCCGCAUGCUAGACUAUAGGAACUCAAGGUACAGAUGGGACAGGGCACCCCAACUCCAAACCCCAGAAGCCUAGUGAGGCUAGGCCGAGACACAAGCAGAUAGCUCUGGCAUUGUUCUUCCAUACUCCUCCAUGGCUGGGGCUGCUACCUCACCCGGCCUGAAUCUGUCUCAACCUGCAAGAGCACUCGGGCGGCGCCAGGCAUUACCUCACAACAGGCCUGCAGUUGUUGGCUUCCCUCCUGGGCAAGGAGGAGCAGGCCAGAGCCCCUUCUCUUGCGGUCGCACUAGUGUGGAAUUCUCGGGUGUCAAGG
1.53 R (bound/input frequency ratio)

Same for ENSMUSG00000029028.135|Lrrc47 (ssRNA) RNA: GGGAGUUCUACAGUCCGACGAUCGCUUCGAUAUCCGCAUGCUAAGGCAUUCUAUUGAACAGUAUUUAUUUUUCUACAACAUGUUAAUAGAAUUUUUUUUUAAAUCAGCUGUGCAUAGACAGUUGAGAACAUCAUGUUGUGAGUGUAAUCUUCUUAGAGCUUGUUUCCAGGCACCGUGCUGCCGCCAUGCUCCCAGGGCAGCAUCUGCCUUCCACGGCUGUGCUUGGAACUGUAGUGCUGGUCGUUGUUGGCACAUCUGCGCCUUGGCCAAGGAAGUUAUCUAUGUCCGUGUAGUCCUUUGUAGCUCUUGCGGUCGCACUAGUGUGGAAUUCUCGGGUGUCAAGG
0.359 R (bound/input frequency ratio)
